testTarget: Human M3 receptor (Homo sapiens)
Sequence (P20309 whole entry): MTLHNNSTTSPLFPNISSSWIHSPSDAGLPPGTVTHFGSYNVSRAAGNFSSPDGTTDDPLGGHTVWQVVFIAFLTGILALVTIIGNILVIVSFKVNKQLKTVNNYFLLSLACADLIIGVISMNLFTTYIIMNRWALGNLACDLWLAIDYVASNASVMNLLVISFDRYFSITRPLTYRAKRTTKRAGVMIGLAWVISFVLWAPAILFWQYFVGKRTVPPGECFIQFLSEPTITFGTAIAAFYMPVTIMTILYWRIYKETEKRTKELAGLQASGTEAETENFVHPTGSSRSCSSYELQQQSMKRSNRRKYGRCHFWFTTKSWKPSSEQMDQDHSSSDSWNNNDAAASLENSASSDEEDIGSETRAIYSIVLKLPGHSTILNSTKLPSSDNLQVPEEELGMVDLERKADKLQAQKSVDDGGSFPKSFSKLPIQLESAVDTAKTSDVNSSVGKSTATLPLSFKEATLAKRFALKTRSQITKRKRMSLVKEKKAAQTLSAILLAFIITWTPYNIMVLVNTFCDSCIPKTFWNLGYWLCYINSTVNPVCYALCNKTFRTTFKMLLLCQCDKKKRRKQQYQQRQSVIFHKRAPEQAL
propertyLabel: IC50

1) COc1cc(C(=O)NCc2nccnc2-c2cccc([C@](O)(C(=O)OCC3CCN(Cc4ccccc4)CC3)c3ccccc3)c2)ccc1CNC[C@H](O)c1ccc(O)c2[nH]c(=O)ccc12 ... 0.3 to 3 nM

Enter reported IC50 observed with Human M3 receptor (Homo sapiens) for O=C(NCc1ccc(-c2cccc([C@](O)(C(=O)OC3CCC4(CC3)CCN(Cc3ccccc3)CC4)c3ccccc3)c2)s1)c1ccc(CNC[C@H](O)c2ccc(O)c3[nH]c(=O)ccc23)cc1
> 3 nM

Enter reported IC50 observed with Human M3 receptor (Homo sapiens) for O=C(c1ccc(CNC[C@H](O)c2ccc(O)c3[nH]c(=O)ccc23)cc1)N1CC=C(c2ccc([C@](O)(C(=O)OCC3CCN(Cc4ccccc4)CC3)c3ccccc3)cc2)CC1 [Compound 15E]
0.3 to 3 nM

Enter reported IC50 observed with Human M3 receptor (Homo sapiens) for O=C(NCc1ccc(-c2cccc([C@](O)(C(=O)OCC3CCN(Cc4ccccc4)CC3)c3ccccc3)c2)s1)c1cc(F)c(CNC[C@H](O)c2ccc(O)c3[nH]c(=O)ccc23)cc1F
0.3 to 3 nM

Enter reported IC50 observed with Human M3 receptor (Homo sapiens) for O=C(NCc1ccc(-c2cccc([C@](O)(C(=O)OCC3CCN(Cc4ccccc4)CC3)c3ccccc3)c2)o1)c1ccc(CNC[C@H](O)c2ccc(O)c3[nH]c(=O)ccc23)cc1
0.3 to 3 nM

Enter reported IC50 observed with Human M3 receptor (Homo sapiens) for O=C(NCc1ccc(-c2ccc([C@](O)(C(=O)OCC3CCN(Cc4ccccc4)CC3)c3ccccc3)cc2)cn1)c1ccc(CNC[C@H](O)c2ccc(O)c3[nH]c(=O)ccc23)cc1 [Compound 15D]
0.3 to 3 nM

Enter reported IC50 observed with Human M3 receptor (Homo sapiens) for O=C(NCc1ccc(-c2cccc([C@](O)(C(=O)OCC3CCN(Cc4ccccc4)CC3)c3ccccc3)c2)s1)c1ccc(CNC[C@H](O)c2ccc(O)c3[nH]c(=O)ccc23)c(F)c1
0.3 to 3 nM

Enter reported IC50 observed with Human M3 receptor (Homo sapiens) for COc1cc(C(=O)NCc2ccc(-c3cccc([C@](O)(C(=O)OCC4CCN(Cc5ccccc5)CC4)c4ccccc4)c3)s2)cc(F)c1CNC[C@H](O)c1ccc(O)c2[nH]c(=O)ccc12
0.3 to 3 nM

Enter reported IC50 observed with Human M3 receptor (Homo sapiens) for Cn1nc(C(=O)NCc2ccc(CNC[C@H](O)c3ccc(O)c4[nH]c(=O)ccc34)cc2)cc1-c1cccc([C@](O)(C(=O)OCC2CCN(Cc3ccccc3)CC2)c2ccccc2)c1
0.3 to 3 nM

Enter reported IC50 observed with Human M3 receptor (Homo sapiens) for COc1cc(C(=O)N2CC=C(c3cccc([C@](O)(C(=O)OCC4CCN(Cc5ccccc5)CC4)c4ccccc4)c3)C2)ccc1CNC[C@H](O)c1ccc(O)c2[nH]c(=O)ccc12
< 0.3 nM

Enter reported IC50 observed with Human M3 receptor (Homo sapiens) for O=C(NCc1ccc(-c2cccc([C@](O)(C(=O)OCC3CCN(Cc4ccccc4)CC3)c3ccccc3)c2)s1)c1ccc(CCNC[C@H](O)c2ccc(O)c3[nH]c(=O)ccc23)cc1
0.3 to 3 nM

Enter reported IC50 observed with Human M3 receptor (Homo sapiens) for COc1cc(C(=O)NCc2ccnc(-c3cccc([C@](O)(C(=O)OCC4CCN(Cc5ccccc5)CC4)c4ccccc4)c3)n2)ccc1CNC[C@H](O)c1ccc(O)c2[nH]c(=O)ccc12
0.3 to 3 nM

Enter reported IC50 observed with Human M3 receptor (Homo sapiens) for O=C(c1ccc(CNC[C@H](O)c2ccc(O)c3[nH]c(=O)ccc23)cc1)N1CC=C(c2cccc([C@](O)(C(=O)OCC3CCN(Cc4ccccc4)CC3)c3ccccc3)c2)CC1
0.3 to 3 nM

Enter reported IC50 observed with Human M3 receptor (Homo sapiens) for COc1cc(CNC[C@H](O)c2ccc(O)c3[nH]c(=O)ccc23)cc(F)c1C(=O)NCc1ccc(-c2cccc([C@](O)(C(=O)OCC3CCN(Cc4ccccc4)CC3)c3ccccc3)c2)s1
0.3 to 3 nM

Enter reported IC50 observed with Human M3 receptor (Homo sapiens) for O=C(NCc1cnc(-c2cccc([C@](O)(C(=O)OCC3CCN(Cc4ccccc4)CC3)c3ccccc3)c2)cn1)c1ccc(CNC[C@H](O)c2ccc(O)c3[nH]c(=O)ccc23)cc1
< 0.3 nM

Enter reported IC50 observed with Human M3 receptor (Homo sapiens) for COc1cc(C(=O)N2CCC(c3cccc([C@](O)(C(=O)OCC4CCN(Cc5ccccc5)CC4)c4ccccc4)c3)CC2)ccc1CNC[C@H](O)c1ccc(O)c2[nH]c(=O)ccc12
0.3 to 3 nM

Enter reported IC50 observed with Human M3 receptor (Homo sapiens) for CN(CC(=O)N1CC=C(c2cccc([C@](O)(C(=O)OCC3CCN(Cc4ccccc4)CC3)c3ccccc3)c2)CC1)C(=O)c1ccc(CNC[C@H](O)c2ccc(O)c3[nH]c(=O)ccc23)cc1
0.3 to 3 nM

----------
testTarget: Human β2 adrenoceptor (Homo sapiens)
Sequence (P07550 whole entry): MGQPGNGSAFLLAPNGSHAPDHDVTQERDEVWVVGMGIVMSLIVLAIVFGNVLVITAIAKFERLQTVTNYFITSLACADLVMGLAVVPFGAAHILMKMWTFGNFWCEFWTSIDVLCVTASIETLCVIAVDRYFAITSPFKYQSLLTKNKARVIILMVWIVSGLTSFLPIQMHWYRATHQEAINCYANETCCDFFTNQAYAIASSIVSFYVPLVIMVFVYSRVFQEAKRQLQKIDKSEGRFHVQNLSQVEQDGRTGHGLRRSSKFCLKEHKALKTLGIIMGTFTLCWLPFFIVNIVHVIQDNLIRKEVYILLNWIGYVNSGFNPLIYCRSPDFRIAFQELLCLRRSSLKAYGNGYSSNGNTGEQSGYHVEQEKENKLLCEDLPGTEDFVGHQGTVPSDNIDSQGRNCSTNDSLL
propertyLabel: IC50

Example results:
1) COc1cc(C(=O)NCc2nccnc2-c2cccc([C@](O)(C(=O)OCC3CCN(Cc4ccccc4)CC3)c3ccccc3)c2)ccc1CNC[C@H](O)c1ccc(O)c2[nH]c(=O)ccc12 ... < 0.3 nM
2) O=C(c1ccnc(-c2cccc([C@](O)(C(=O)OCC3CCN(Cc4ccccc4)CC3)c3ccccc3)c2)c1)N1CCC(CNC[C@H](O)c2ccc(O)c3[nH]c(=O)ccc23)CC1 ... < 0.3 nM
3) COc1c(CNC[C@H](O)c2ccc(O)c3[nH]c(=O)ccc23)ccc(C(=O)NCc2ccc(-c3cccc([C@](O)(C(=O)OCC4CCN(Cc5ccccc5)CC4)c4ccccc4)c3)s2)c1F ... < 0.3 nM

Enter reported IC50 observed with Human β2 adrenoceptor (Homo sapiens) for O=C(NCc1ccc(-c2cccc([C@](O)(C(=O)OCC3CCN(Cc4ccccc4)CC3)c3ccccc3)c2)s1)c1ccc(CNC[C@H](O)c2ccc(O)c3[nH]c(=O)ccc23)c(F)c1
< 0.3 nM

Enter reported IC50 observed with Human β2 adrenoceptor (Homo sapiens) for COc1cccc(CN2CCC(COC(=O)[C@](O)(c3ccccc3)c3cccc(-c4ccc(CNC(=O)c5ccc(CNC[C@H](O)c6ccc(O)c7[nH]c(=O)ccc67)cc5)s4)c3)CC2)c1
0.3 to 3 nM

Enter reported IC50 observed with Human β2 adrenoceptor (Homo sapiens) for O=C(NCc1csc(-c2cccc([C@](O)(C(=O)OCC3CCN(Cc4ccccc4)CC3)c3ccccc3)c2)c1)c1ccc(CNC[C@H](O)c2ccc(O)c3[nH]c(=O)ccc23)cc1
< 0.3 nM

Enter reported IC50 observed with Human β2 adrenoceptor (Homo sapiens) for O=C(NCc1ccc(-c2cccc([C@](O)(C(=O)OCC3CCN(Cc4ccccc4)CC3)c3ccccc3)c2)s1)c1cccc(CNC[C@H](O)c2ccc(O)c3[nH]c(=O)ccc23)c1
0.3 to 3 nM

Enter reported IC50 observed with Human β2 adrenoceptor (Homo sapiens) for O=C(NCc1ccc(-c2cccc([C@](O)(C(=O)OCC3CCN(Cc4ccccc4)CC3)c3ccccc3)c2)s1)c1c(F)cc(CNC[C@H](O)c2ccc(O)c3[nH]c(=O)ccc23)cc1Cl
< 0.3 nM

Enter reported IC50 observed with Human β2 adrenoceptor (Homo sapiens) for O=C(NCc1ccc(-c2cccc([C@](O)(C(=O)OC3CCN(Cc4ccccc4)CC3)c3ccccc3)c2)s1)c1ccc(CNC[C@H](O)c2ccc(O)c3[nH]c(=O)ccc23)cc1
< 0.3 nM

Enter reported IC50 observed with Human β2 adrenoceptor (Homo sapiens) for O=C(NCc1ccc(-c2cccc([C@](O)(C(=O)OCC3CCN(Cc4ccccc4)CC3)c3ccccc3)c2)s1)c1cc(F)c(CNC[C@H](O)c2ccc(O)c3[nH]c(=O)ccc23)cc1F
< 0.3 nM

----------
Endpoint: IC50. System: UniProt P07550. Items follow.

Example results:
1. COc1cc(C(=O)NCC(=O)N2CC=C(c3cccc([C@](O)(C(=O)OCC4CCN(Cc5ccccc5)CC4)c4ccccc4)c3)CC2)ccc1CNC[C@H](O)c1ccc(O)c2[nH]c(=O)ccc12 ... < 0.3 nM
2. O=C(c1ccc(CCNC[C@H](O)c2ccc(O)c3[nH]c(=O)ccc23)cc1)N1CCC(c2cccc([C@](O)(C(=O)OCC3CCN(Cc4ccccc4)CC3)c3ccccc3)c2)CC1 ... < 0.3 nM

// returns reported IC50 for input O=C(c1ccc(CNC[C@H](O)c2ccc(O)c3[nH]c(=O)ccc23)cc1)N1CC=C(c2ccc([C@](O)(C(=O)OCC3CCN(Cc4ccccc4)CC3)c3ccccc3)cc2)CC1 [Compound 15E]
< 0.3 nM

----------
pIC50: −log10 of the molar value.
Endpoint: pIC50. System: Human β2 adrenoceptor (Homo sapiens). Items follow.

Example results:
1. O=C1c2ccc(CNC[C@H](O)c3ccc(O)c4[nH]c(=O)ccc34)cc2C(=O)N1Cc1ccc(-c2cccc([C@](O)(C(=O)OCC3CCN(Cc4ccccc4)CC3)c3ccccc3)c2)s1 ... 8.52 to 9.52
2. COc1cc(C(=O)NCc2ncc(-c3cccc([C@](O)(C(=O)OCC4CCN(Cc5ccccc5)CC4)c4ccccc4)c3)cn2)ccc1CNC[C@H](O)c1ccc(O)c2[nH]c(=O)ccc12 ... 8.52 to 9.52
3. O=C(c1ccc(-c2cccc([C@](O)(C(=O)OCC3CCN(Cc4ccccc4)CC3)c3ccccc3)c2)nc1)N1CCC(CNC[C@H](O)c2ccc(O)c3[nH]c(=O)ccc23)CC1 ... > 9.52

// returns reported pIC50 for input O=C(NCc1ccc(-c2ccc([C@](O)(C(=O)OCC3CCN(Cc4ccccc4)CC3)c3ccccc3)cc2)cn1)c1ccc(CNC[C@H](O)c2ccc(O)c3[nH]c(=O)ccc23)cc1 [Compound 15D]
> 9.52

// returns reported pIC50 for input O=C(NCc1ccc(-c2cccc([C@](O)(C(=O)OCC3CCN(Cc4ccccc4)CC3)c3ccccc3)c2)s1)c1ccc(CNC[C@H](O)c2ccc(O)c3[nH]c(=O)ccc23)c(F)c1F
> 9.52

// returns reported pIC50 for input COc1cc(C(=O)NCc2ccc(-c3cccc([C@](O)(C(=O)OCC4(C)CCN(Cc5ccccc5)CC4)c4ccccc4)c3)s2)c(Cl)cc1CNC[C@H](O)c1ccc(O)c2[nH]c(=O)ccc12
> 9.52

// returns reported pIC50 for input Cc1cc(C(=O)NCc2ccc(-c3cccc([C@](O)(C(=O)OCC4CCN(Cc5ccccc5)CC4)c4ccccc4)c3)s2)ccc1CNC[C@H](O)c1ccc(O)c2[nH]c(=O)ccc12
> 9.52

// returns reported pIC50 for input O=C(c1ccc(CCNC[C@H](O)c2ccc(O)c3[nH]c(=O)ccc23)cc1)N1CC=C(c2cccc([C@](O)(C(=O)OCC3CCN(Cc4ccccc4)CC3)c3ccccc3)c2)C1
> 9.52
